Assay: Endothelial cell specificity of compound was determined as cytotoxicity on human tumor cell line A549 to that of endothelial cell
Format: functional
measured.attribute: ECS ratio

{"columns": ["compound", "measured"],
 "data": [
  ["C=C(C)[C@@H]1CC[C@]2(C(=O)O)CC[C@]3(C)[C@H](CC[C@@H]4[C@@]5(C)CCC(=O)C(C)(C)[C@@H]5CC[C@]43C)[C@@H]12", 9.8],
  ["CC(C)[C@@H]1CC[C@]2(C(=O)O)CC[C@]3(C)C(CCC4[C@@]5(C)CC/C(=N\\Nc6ccc(F)cc6)C(C)(C)C5CC[C@]43C)C12 (stereo partly specified)", 20],
  ["CC(C)[C@@H]1CC[C@]2(C(=O)O)CC[C@]3(C)C(CCC4[C@@]5(C)CC(Br)[C@H](O)C(C)(C)C5CC[C@]43C)C12 (stereo partly specified)", 11.5],
  ["CC(C)[C@@H]1CC[C@]2(C(=O)O)CC[C@]3(C)C(CCC4[C@@]5(C)CC/C(=N\\NC(=O)c6ccccc6)C(C)(C)C5CC[C@]43C)C12 (stereo partly specified)", 27.7],
  ["CC(C)[C@@H]1CC[C@]2(C(=O)O)CC[C@]3(C)C(CCC4[C@@]5(C)CC/C(=N\\Nc6c(Cl)cc(Cl)cc6Cl)C(C)(C)C5CC[C@]43C)C12 (stereo partly specified)", 19],
  ["C=C(C)[C@@H]1CC[C@]2(C(=O)O)CC[C@]3(C)[C@H](CC[C@@H]4[C@@]5(C)CC[C@H](O)C(C)(C)[C@@H]5CC[C@]43C)[C@@H]12", 1.1]
]}

Values from ChEMBL document CHEMBL1147553
